assaySummary: Human pharmacokinetics after oral administration
Assay type: in vivo
conditionDescription: human, plasma, oral, CF patients; read-out: T1/2 (elimination half-life)
parameterMeasured: half-life

>>> print(df.to_string())
                                inputsmiles  measured
0  O=C(O)c1ccc(CN2C[C@@H]3C[C@H]2CN3Cc2ccc(Oc3ccc(-c4ncco4)cc3)cc2)cc1  8 to 9 h

###

systemUnderTest: LTA4H epoxide hydrolase (Homo sapiens (Human), UniProt P09960)
Sequence (P09960 whole entry): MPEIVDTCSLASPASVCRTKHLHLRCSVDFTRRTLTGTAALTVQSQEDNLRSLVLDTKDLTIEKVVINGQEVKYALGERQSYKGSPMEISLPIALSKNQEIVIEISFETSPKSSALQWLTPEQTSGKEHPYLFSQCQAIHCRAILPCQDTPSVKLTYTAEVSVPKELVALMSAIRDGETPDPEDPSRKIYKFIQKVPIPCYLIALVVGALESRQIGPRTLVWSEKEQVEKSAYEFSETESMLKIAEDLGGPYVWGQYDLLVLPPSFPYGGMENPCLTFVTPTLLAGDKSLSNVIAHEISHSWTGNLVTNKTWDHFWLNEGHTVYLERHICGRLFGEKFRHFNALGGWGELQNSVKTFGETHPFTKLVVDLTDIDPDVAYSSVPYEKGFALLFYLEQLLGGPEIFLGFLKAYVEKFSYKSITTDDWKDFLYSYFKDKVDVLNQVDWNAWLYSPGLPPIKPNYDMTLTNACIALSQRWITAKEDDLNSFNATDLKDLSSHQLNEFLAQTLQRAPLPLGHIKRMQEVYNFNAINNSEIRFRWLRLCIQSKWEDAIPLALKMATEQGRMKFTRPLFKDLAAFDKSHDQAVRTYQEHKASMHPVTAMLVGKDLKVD
assaySummary: LTA4H epoxide hydrolase enzymatic activity (LTB4 production) in vitro
Format: biochemical
conditionDescription: read-out: IC50, LTA4H-mediated production of LTB4
parameterMeasured: IC50 (nM)

>>> print(df.to_string())
                                inputsmiles                           systemundertest  parametermeasured  measured
0  O=C(O)c1ccc(CN2C[C@@H]3C[C@H]2CN3Cc2ccc(Oc3ccc(-c4ncco4)cc3)cc2)cc1  LTA4H epoxide hydrolase (Homo sapiens (Human), UniProt P09960)               IC50        13
